Measured values drawn from paper PMC7113753 for this set.

- target-system: PEDV PL2^pro (Porcine epidemic diarrhea virus, UniProt V5W8W2)
- protocol-description: biochemical
- Format: biochemical
- assay-setup: read-out: IC50 (DUB activity); pH 6.5
result-type: IC50

Exercise: // lookup IC50 | system=PEDV PL2^pro (Porcine epidemic diarrhea virus, UniProt V5W8W2) | key= `Cc1ccc(N)cc1C(=O)N[C@H](C)c1cccc2ccccc12`
Solution: > 100 µM

###

- target-system: PEDV PL2^pro (Porcine epidemic diarrhea virus, UniProt V5W8W2)
- protocol-description: biochemical
- Type: biochemical
pIC50: −log10 of the molar value.
result-type: pIC50

# molecule, result-type, assay-value
rows = [
    ("Sc1ncnc2nc[nH]c12 [6MP, 6-mercaptopurine]", "pIC50", 4.24),
    ("O=c1[nH]cnc2nc[nH]c12 [Hypoxanthine]", "pIC50", "< 3.70"),
]

Exercise: Look at this molecule and give its reported pIC50. COc1c(C)c2c(c(O)c1C/C=C(\C)CCC(=O)O)C(=O)OC2 [Mycophenolic acid]
Solution: < 3.70

Exercise: Look at this molecule and give its reported pIC50. CCN(CC)C(=S)SSC(=S)N(CC)CC [Disulfiram]
Solution: < 4.00
